# ASSAY PROCEDURE: cn = amount concentration of the nth substance listed, in mol/dm3
# PROTOCOL CONDITIONS: 323.15 K; 101.3 kPa; Liquid; Vibrating tube method; c1 = 2
Overview of reported mass density across a group of compounds:
Output spec: scalar in kg/m3, unitless text.

// known answers, use as guide
COMPOUND | QUANTITATIVE RESULT
[Cl-].[K+] [potassium chloride] + O | 1068.81
[Br-].[K+] [potassium bromide] + O | 1144.45
[Cl-].[Na+] [sodium chloride] + O | 1061.5

# input for lookup
Query: # mass density lookup, item CC(=O)[O-].[K+] [potassium ethanoate] + O
Reply: 1074.47
